src = ChEMBL document CHEMBL3885881

species on record: Rattus norvegicus; assay: DrugMatrix - Regimen: Daily Repeat; type: toxicity, organism-based, Sprague-Dawley; parameters: regimen Daily Repeat, gender Male, age 6-8 weeks; conditions: in vivo, po, 0 mg/kg, 72 h, tissue Plasma, route oral GAVAGE, dose level Control, time 3 day, […]
CHLORIDE values for the compounds below.
Report the figure in MEQ/L without appending any unit label.

Some entries whose results are on file:
compound=C[C@H]1O[C@@H](O[C@H]2[C@@H](O)C[C@H](O[C@H]3[C@@H](O)C[C@H](O[C@H]4CC[C@@]5(C)[C@H](CC[C@@H]6[C@@H]5C[C@@H](O)[C@]5(C)[C@@H](C7=CC(=O)OC7)CC[C@]65O)C4)O[C@@H]3C)O[C@@H]2C)C[C@H](O)[C@@H]1O number=101
compound=C[C@@H]1CN(c2c(F)c(N)c3c(=O)c(C(=O)O)cn(C4CC4)c3c2F)C[C@H](C)N1 number=100
compound="CCOC(=O)C1=C(COCCN)NC(C)=C(C(=O)OC)C1c1ccccc1Cl (centres undefined)" number=100
compound="CCC(C)n1ncn(-c2ccc(N3CCN(c4ccc(OCC5COC(Cn6cncn6)(c6ccc(Cl)cc6Cl)O5)cc4)CC3)cc2)c1=O (centres undefined)" number=100.33
compound=OC(Cn1cncn1)(Cn1cncn1)c1ccc(F)cc1F number=100.33
compound="Cc1oncc1C(=O)Nc1ccc(C(F)(F)F)cc1 [LEFLUNOMIDE]" number=99
compound=Cc1ccc(-c2cc(C(F)(F)F)nn2-c2ccc(S(N)(=O)=O)cc2)cc1 number=100.33
compound=CN(C)c1nc(N(C)C)nc(N(C)C)n1 number=100

Let's switch to this compound now.
Task: Find the measured CHLORIDE of O=C(O)CCCc1ccc(N(CCCl)CCCl)cc1 and report it.
Output: 100.33
